Biological target: NRF2 DBD of NRF2-sMafGχ;sMafG DBD of chimeras (Homo sapiens?;Homo sapiens?, UniProt Q16236;O15525 451-567;1-162, |)
Assay: EMSA; apparent; TEV and 3C cleaved; 150 mM NaCl, 50 mM HEPES pH 7.9, 10% glycerol, 1 mM TCEP, 1 mM DTT, 2 mM MgCl2; 3 nM DNA; TEV and 3C 50 ug/mL each, 4 h 25 °C; competition then O/N 4 °C; gels 4 °C in 1X TBE
Conditions: protein: recombinant;recombinant; tags: 3C/TEV-cleavable linker with His tags to sMafG;fused C-terminal of the linker; copies: 1;1; label: 5' fluorescein on forward strand; blunt
metric name: pKd
In plain terms, pKd is the concentration in mol/L turned into minus its base-10 logarithm.

q: Report pKd for HMOX1 CsMBE 30-mer (dsDNA) DNA 1: CTCGGGACCGTGACTCAGCAGGAAAAACAC DNA 2: GTGTTTTTCCTGCTGAGTCACGGTCCCGAG please.
a: 7.24
